Origin of values: patent US9302996B2

System: C57BL/6J mice
Test: Antifeeding activity (high fat diet intake up to 4 hours)
Assay type: in vivo
Experimental context: Mus musculus, male C57BL/6J mice, 5 mg/kg oral, food ingested up to 4 hours, read-out: Antifeeding rate (5 mg/kg)
Assign inhibition in vivo at 5 mg/kg to each entry below.
Give bare numbers, in %.

Example cases with answers are listed next.
{"Given smiles": "O=C(O)C1(COc2ccc(-c3ccc(-c4ncc(C(F)(F)F)[nH]4)cn3)cn2)CCCC1", "Tested on": "C57BL/6J mice", "Reading unit": "%", "inhibition in vivo at 5 mg/kg": 82}
{"Given smiles": "CCC(CC)(COc1ccc(-c2ccc(-c3ncc(C(F)(F)F)[nH]3)cn2)cc1)C(=O)O", "Tested on": "C57BL/6J mice", "Reading unit": "%", "inhibition in vivo at 5 mg/kg": 78}

Consider the following items and state reported inhibition in vivo at 5 mg/kg for each.
1. CCC(CC)(COc1cc(C)c(-c2ccc(-c3ncc(C(F)(F)F)[nH]3)c(Cl)c2)cn1)C(=O)O
2. Cc1cc(OCC(C)(C)C(=O)O)ncc1-c1ccc(-c2ncc(C(F)(F)F)[nH]2)nc1
3. CC(C)(COc1ccc(-c2ccc(-c3ncc(C(F)(F)F)[nH]3)cn2)c(F)c1)C(=O)O

RESULT:
78
80
78
